# Assay Notes: Pharmacokinetic study in rats after single oral administration of S. officinalis extract (UHPLC-MS/MS of plasma)
# Assay type: in vivo, Sprague-Dawley rats
# Setup Conditions: male, Sprague-Dawley; rat plasma, single oral dose of S. officinalis extract 0.015 g/kg, n = 12, mean ± SD
Measurement Kind: AUC(0-t) (ng·h/mL)
Answers are plain numbers, in ng·h/mL.

Known results for compounds:
CC1CCC2(C(=O)OC3OC(CO)C(O)C(O)C3O)CCC3(C)C(=CCC4C5(C)CCC(O)C(C)(C)C5CCC43C)C2C1(C)O (stereo not shown) : 2300
C[C@@H]1CC[C@]2(C(=O)O[C@@H]3O[C@H](CO)[C@@H](O)[C@H](O)[C@H]3O)CC[C@]3(C)C(=CC[C@@H]4[C@@]5(C)C[C@@H](O)[C@H](O)C(C)(C)[C@@H]5CC[C@]43C)[C@@H]2[C@]1(C)O : 1210
C=C1[C@H]2C3=CC[C@@H]4[C@@]5(C)C[C@@H](O)[C@@H](O)C(C)(C)[C@@H]5CC[C@@]4(C)[C@]3(C)CC[C@@]2(C(=O)O[C@@H]2O[C@H](CO)[C@@H](O)[C@H](O)[C@H]2O)CC[C@H]1C [VI, alpinoside] : 1030

Here is another compound to look at.
In: Give its AUC(0-t) value. Item: CC1CCC2(C(=O)O)CCC3(C)C(=CCC4C5(C)C(O)C(O)C(O)C(C)(C)C5CCC43C)C2C1(C)O (stereo not drawn) [V, 1β-hydroxyeuscaphic acid]
Out: 733

---

Consider the following compounds; for each one, report its Stability Post-Preparation.
# Assay Notes: Stability of analytes in rat plasma under various storage conditions
# Assay type: in vitro ADME
# Setup Conditions: 12 h after sample preparation at 4 °C, low QC spiked concentration
Answers are plain numbers, in % RE.

Required: Stability Post-Preparation, one value per compound below.
1. C[C@@H]1CC[C@]2(C(=O)O[C@@H]3O[C@H](CO)[C@@H](O)[C@H](O)[C@H]3O)CC[C@]3(C)C(=CC[C@@H]4[C@@]5(C)C[C@@H](O)[C@H](O)C(C)(C)[C@@H]5CC[C@]43C)[C@@H]2[C@]1(C)O
2. C[C@@H]1CC[C@]2(C(=O)O[C@@H]3O[C@H](CO)[C@@H](O)[C@H](O)[C@H]3O)CC[C@]3(C)C(=CC[C@@H]4[C@@]5(C)CC[C@H](O[C@@H]6OC[C@H](O)[C@H](O)[C@H]6O)C(C)(C)[C@@H]5CC[C@]43C)[C@@H]2[C@]1(C)O [I, ziyuglycoside I]
3. C=C1[C@H]2C3=CC[C@@H]4[C@@]5(C)C[C@@H](O)[C@@H](O)C(C)(C)[C@@H]5CC[C@@]4(C)[C@]3(C)CC[C@@]2(C(=O)O[C@@H]2O[C@H](CO)[C@@H](O)[C@H](O)[C@H]2O)CC[C@H]1C [VI, alpinoside]
4. CC1=C2C3=CCC4C5(C)CCC(OC6OCC(O)C(O)C6O)C(C)(C)C5CCC4(C)C3(C)CCC2(C(=O)OC2OC(CO)C(O)C(O)C2O)CCC1C (stereo not drawn)
5. CC1CCC2(C(=O)OC3OC(CO)C(O)C(O)C3O)CCC3(C)C(=CCC4C5(C)CCC(O)C(C)(C)C5CCC43C)C2C1(C)O (stereo not drawn)
6. CC1CCC2(C(=O)O)CCC3(C)C(=CCC4C5(C)C(O)C(O)C(O)C(C)(C)C5CCC43C)C2C1(C)O (stereo not drawn) [V, 1β-hydroxyeuscaphic acid]

Out:
1. 7.45
2. −2.07
3. 3.18
4. −1.34
5. 5.22
6. 8.48

// provenance: paper PMC6278537
